Experiment: Regional brain distribution in rats (dissection, iv injection)
Assay type: in vivo
Conditions: rat, hippocampus, 30 min, read-out: Regional brain uptake, hippocampus
PROPERTY_MEASURED: tissue uptake at 0.5 h (%ID/g)
Value expressed in %ID/g; do not type the unit.

*Q* State its tissue uptake at 0.5 h: COc1cc2c(cc1OC)C1CC(O)(C=C[123I])C(CC(C)C)CN1CC2 (racemic) [Compound 2b]
*A* 0.21

----------
Assay: Regional brain distribution in rats (dissection, iv injection)
Format: in vivo
Settings: rat, hippocampus, 5 min, read-out: Regional brain uptake, hippocampus
PROPERTY_MEASURED: tissue uptake at 5 min (%ID/g)
Numeric answer only, unit %ID/g assumed.

*Q* Please give measured tissue uptake at 5 min of the following entry: COc1cc2c(cc1OC)C1CC(O)(C=C[123I])C(CC(C)C)CN1CC2 (single isomer, unassigned) [Peak A]
*A* 0.725

----------
Test: Regional brain distribution in rats (dissection, iv injection)
Assay type: in vivo
Conditions: rat, cerebellum, 240 min, read-out: Regional brain uptake, cerebellum
PROPERTY_MEASURED: tissue uptake at 4 h (%ID/g)
Report only the number, with the unit %ID/g understood.

*Q* Give the value of tissue uptake at 4 h reported for the following: COc1cc2c(cc1OC)C1CC(O)(C=C[123I])C(CC(C)C)CN1CC2 (racemic)
*A* 0.051

----------
Assay: Regional brain distribution in rats (dissection, iv injection)
Format: in vivo
Details: rat, cortex, 16 hr, read-out: Regional brain uptake, cortex
PROPERTY_MEASURED: tissue uptake at 16 h (%ID/g)
Answer format: numeric, %ID/g implied, no suffix.

*Q* Output measured tissue uptake at 16 h for this item: COc1cc2c(cc1OC)C1CC(O)(C=C[123I])C(CC(C)C)CN1CC2 (racemic)
*A* 0.0061

----------
Experiment: Regional brain distribution in rats (dissection, iv injection)
Assay type: in vivo
Conditions: rat, hippocampus, 16 hr, read-out: Regional brain uptake, hippocampus
PROPERTY_MEASURED: tissue uptake at 16 h (%ID/g)
Form entry: value (%ID/g) — number only.

*Q* Read the entry COc1cc2c(cc1OC)C1CC(O)(C=C[123I])C(CC(C)C)CN1CC2 (racemic) and write its reported tissue uptake at 16 h.
*A* 0.0051

----------
Assay: Regional brain distribution in rats (dissection, iv injection)
Assay type: in vivo
Conditions: rat, cortex, 6 hr, 2 rats only, read-out: Regional brain uptake, cortex
PROPERTY_MEASURED: tissue uptake at 6 h (%ID/g)
# number only, unit %ID/g dropped from output

*Q* Return tissue uptake at 6 h for the following molecule: COc1cc2c(cc1OC)C1CC(O)(C=C[123I])C(CC(C)C)CN1CC2 (racemic)
*A* 0.022

----------
Assay: Regional brain distribution in rats (dissection, iv injection)
Type: in vivo
Conditions: rat, hippocampus, 20 min, pretreated with TBZ 3 min before, n = 2, read-out: Regional brain uptake, hippocampus
PROPERTY_MEASURED: tissue uptake at 20 min (%ID/g)
Give a bare numeral; the unit %ID/g is implied.

*Q* Output tissue uptake at 20 min of COc1cc2c(cc1OC)C1CC(O)(C=C[123I])C(CC(C)C)CN1CC2 (single isomer, unassigned) [Peak A]
*A* 0.581

----------
Test: Regional brain distribution in rats (dissection, iv injection)
Assay type: in vivo
Conditions: rat, cortex, 240 min, read-out: Regional brain uptake, cortex
PROPERTY_MEASURED: tissue uptake at 4 h
# do not omit the unit; it follows the number

*Q* Please give measured tissue uptake at 4 h of the following entry: COc1cc2c(cc1OC)C1CC(O)(C=C[123I])C(CC(C)C)CN1CC2 (racemic) [Compound 2b]
*A* 0.052 %ID/g
